B1: Androgen receptor, residues 557 to 632; numbered along this chain, P10275 (parent)
chain: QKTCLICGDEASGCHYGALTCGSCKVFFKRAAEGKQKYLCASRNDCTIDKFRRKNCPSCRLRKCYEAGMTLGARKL

Variants of: B1
Experiment: abundance fitness (aPCA) (normalised: wild type 0, dead -1); higher = more abundant; growth selection in yeast, the domain comes from the species named
Settings: Homo sapiens
The label depends only on abundance fitness: criterion met if it is at least -0.1, criterion not met if it is smaller.

# variant-designation, classification
rows = [
    ("E33Y", "criterion not met"),
    ("G72H", "criterion met"),
    ("K35R", "criterion met"),
    ("G22V", "criterion not met"),
    ("E33T", "criterion met"),
    ("T20Q", "criterion not met"),
    ("V26C", "criterion met"),
    ("G22F", "criterion not met"),
    ("G13N", "criterion not met"),
    ("C46S", "criterion not met"),
    ("S23K", "criterion not met"),
    ("S58C", "criterion met"),
    ("C40R", "criterion not met"),
    ("G17R", "criterion not met"),
    ("S12G", "criterion met"),
    ("R52H", "criterion met"),
    ("I6A", "criterion not met"),
    ("C24L", "criterion not met"),
    ("D45L", "criterion not met"),
    ("T20M", "criterion not met"),
    ("V26P", "criterion not met"),
    ("C24E", "criterion not met"),
    ("C46Q", "criterion not met"),
    ("N55T", "criterion met"),
    ("K29M", "criterion not met"),
    ("K29C", "criterion not met"),
    ("C56V", "criterion not met"),
    ("C14D", "criterion met"),
    ("A73F", "criterion not met"),
    ("Y65C", "criterion met"),
    ("C40I", "criterion not met"),
    ("L19T", "criterion met"),
    ("G17S", "criterion not met"),
    ("T20I", "criterion met"),
    ("Q1L", "criterion met"),
    ("C21D", "criterion not met"),
    ("G8E", "criterion met"),
    ("Y65M", "criterion met"),
    ("C21A", "criterion not met"),
    ("C21P", "criterion not met"),
    ("Y16H", "criterion not met"),
    ("G22P", "criterion met"),
    ("A41K", "criterion not met"),
    ("R52Y", "criterion met"),
    ("A18S", "criterion not met"),
    ("F27K", "criterion not met"),
    ("R52V", "criterion met"),
    ("K25W", "criterion met"),
    ("Q36A", "criterion met"),
    ("L39Q", "criterion met"),
    ("C21R", "criterion not met"),
    ("A31R", "criterion not met"),
    ("L5P", "criterion not met"),
    ("C64F", "criterion not met"),
    ("C14P", "criterion met"),
    ("C40G", "criterion not met"),
    ("K29L", "criterion not met"),
    ("K29I", "criterion not met"),
    ("R30N", "criterion met"),
    ("R74G", "criterion met"),
    ("K50F", "criterion not met"),
    ("A41F", "criterion not met"),
    ("S58R", "criterion met"),
    ("G68D", "criterion not met"),
    ("A31P", "criterion not met"),
    ("C7S", "criterion not met"),
    ("S58I", "criterion not met"),
    ("T3N", "criterion met"),
    ("K37N", "criterion met"),
    ("A32V", "criterion met"),
    ("H15D", "criterion not met"),
    ("G22I", "criterion not met"),
    ("P57Y", "criterion met"),
    ("L5Q", "criterion not met"),
    ("T47D", "criterion met"),
    ("Y16Q", "criterion not met"),
    ("G8W", "criterion not met"),
    ("K25G", "criterion met"),
    ("L5C", "criterion met"),
    ("H15G", "criterion not met"),
    ("K37Q", "criterion met"),
    ("R52G", "criterion met"),
    ("C7N", "criterion not met"),
    ("C64V", "criterion not met"),
    ("K25V", "criterion met"),
    ("D45F", "criterion not met"),
    ("T3L", "criterion met"),
    ("L19W", "criterion met"),
    ("R30S", "criterion met"),
]

All values here come from the Human Domainome abundance scans (Beltran et al. 2025).
